I'd be grateful if you could share measured melting point for these entries.
Give bare numbers, in °C.

> print(dat)
                                   compound  readout.units  quantitative.readout
1  COc1cc2c(c(OC)c1OC)C(=O)[C@]1(OC)C=C[C@H]2N(c2ccccc2)O1             °C                   114
2                    COc1cc(C)c(C=O)c(OC)c1             °C                    65
3       CC(=O)CCc1oc2ccc(I)cc2c1-c1ccc(C)o1             °C                    94
4       CC(=O)Nc1ccccc1CCNCCc1ccccc1NC(C)=O             °C                   110
5                     O=C(O)CCCC(=O)c1cccs1             °C                    96
6  CC1(C)C(C=C(Cl)Cl)C1C(=O)OCc1c(F)c(F)cc(F)c1F (stereo not given)             °C                    32
7                               CCOC(=O)OCC             °C                   -43
8           Cc1cc(=O)oc2cc(OP(=O)(O)O)ccc12             °C                   210

Provide each entry's melting point from the list below.
1. CC1CCCCC1O (stereo not given)
2. CC(C)N1C(=O)c2ccccc2NS1(=O)=O
3. CCOC(=O)C(F)(F)C(F)(F)F

Given back:
7
140
75.5

Provide the reported melting point of each entry below, same order.
1. O=C1NC(=O)C(c2ccccc2)(c2ccccc2)N1
2. Cc1ccc2c(ccc3ccccc32)c1

Given back:
[295, 58]

* * *

Assay Readout: melting point (°C)
Give bare numbers, in °C.

> print(dat)
                                   molecule  assay.readout  readout.units  quantitative.readout
1        CC1CC1C (configuration not stated)  melting point             °C                  -141
2  CCOC(=O)c1cc2cc(C(F)(F)F)c(C(F)(F)F)cc2c(=O)o1  melting point             °C                   193
3  CN(C)CCC(O)(c1ccccc1)c1ccccc1Cl (configuration not stated)  melting point             °C                   120
4       O=C1NC(=O)C(=NNc2ccc(Br)cc2)C(=O)N1  melting point             °C                   295
5         Nc1ccc(S(=O)(=O)Nc2ccc(Cl)nn2)cc1  melting point             °C                   187
6                              CCCCCCCCSCCO  melting point             °C                     0

Could you report melting point for every entry in the following list?
1. COc1cc(C2c3cc4c(c(O)c3CC3COC(=O)C32)OCO4)cc(OC)c1OC (configuration not stated)
2. O[C@@H]1CCCC/C=C\c2ccccc21

Given back:
[234, 97]

* * *

Assay Readout: melting point (°C)
Give bare numbers, in °C.

> print(dat)
                                   compound  readout.units  quantitative.readout
1               Cc1cc(-c2onc(C)c2C(=O)O)no1             °C                   167
2       Brc1c(Br)c(Br)c(Oc2ccccc2)c(Br)c1Br             °C                   200
3          CCC(C)(C)c1cc(O)c(C(C)(C)CC)cc1O             °C                   180
4  CC1(O)CCC2C3CCC4=CC(=O)CCC4(C)C3(F)C(O)CC21C (stereo unspecified)             °C                   270
5  COc1ccc(C(=O)C2=NOC3C(=O)N(c4cc(Cl)ccc4Cl)C(=O)C23)cc1 (stereo unspecified)             °C                   147
6                         CC(=O)c1ccc(C)nc1             °C                  17.6
7  COc1cc(OC)nc(NC(=O)NS(=O)(=O)c2cc(NC=O)ccc2C(=O)N(C)C)n1             °C                   194
8         O=C1NC(=O)c2cc([N+](=O)[O-])ccc21             °C                   206

Please state melting point for every compound in the list that follows.
1. Cn1c(N)c(N=O)c(=O)[nH]c1=O
2. CCCC(CC)C1(CC)C(=O)NC(=O)NC1=O (stereo unspecified)
3. c1cc2c3c(cccc3c1)C1=NCCN=C12
4. CC(=O)NC(CCC(N)=O)C(=O)O (stereo unspecified)
5. Cc1n[nH]c(C)c1Br
6. Nc1ccc([N+](=O)[O-])cc1C(=O)O
7. Nc1ccc(C=CC(=O)c2ccccc2)cc1
8. OCCCCCCCCCCCl

Given back:
1. 300
2. 122
3. 95
4. 197
5. 121
6. 278
7. 151
8. 12.5

* * *

Task for the reader: assign each of the following molecules its reported melting point.
One number for each entry, in °C.

> print(dat)
                                   molecule  assay.readout  quantitative.readout
1  CCCCCC(C)OC(=O)COc1ccc(Cl)c2cccnc12 (stereo unspecified)  melting point                  69.4
2  CC(CO)NC(=O)C1C=C2c3cccc4[nH]cc(c34)CC2N(C)C1 (stereo unspecified)  melting point                   162
3  O=C(C1=NOC2C(=O)N(c3ccc(Br)cc3)C(=O)C12)c1ccc2ccccc2c1 (stereo unspecified)  melting point                   186

As a next step, examine the molecule that follows.
So for `COC(=O)c1ccc(C(=O)OC)c(C(=O)OC)c1` , the logged melting point turned out to be 39

* * *

Please provide measured melting point for the entries that follow.

> print(dat)
                                   molecule  assay.readout         result
1  O=C(O)C1CC(=O)N(Cc2ccco2)C1 (configuration not stated)  melting point  159 to 160 °C
2     O=C(CI)NCCNc1cccc2c(S(=O)(=O)O)cccc12  melting point         300 °C
3   C=CC1CC=CCC1 (configuration not stated)  melting point        -109 °C

Working through the 3 molecules below one at a time, give melting point for each.
1. O=[N+]([O-])c1ccc(C=Cc2ccc([N+](=O)[O-])cc2S(=O)(=O)Oc2ccccc2)c(S(=O)(=O)Oc2ccccc2)c1
2. O=C1CCCCC1C1CCCCC1 (configuration not stated)
3. CC(C)(SC(=O)N1CCCCC1)c1ccccc1

Given back:
1: 192 °C; 2: -32 °C; 3: 39.1 °C

Here are 4 molecules. What values of melting point were reported for them?
1. Fc1cc2nc(S)[nH]c2cc1Cl
2. CC(=O)/C(=N\Nc1ccc(Cl)cc1)C(=O)C(F)(F)F
3. Cc1cc(Cl)ccc1OCC(=O)O
4. O=C(OCC1CC1)c1cnc(Cl)nc1C(F)(F)F

Given back:
["298 to 301 °C", "124 °C", "120 °C", "108 to 110 °C"]

Could you tell me melting point for each of these molecules? They are listed below.
1. Nc1cc(C(F)(F)F)ccn1
2. COc1cccc(C=C(C)[N+](=O)[O-])c1

Given back:
73 °C
45 to 47 °C

* * *

Response field label takes fulfilled when melting point is strictly below 100 °C and not fulfilled in all other cases.

> print(dat)
                                   compound  classification
1  O=[N+]([O-])c1ccc(NN=C(Cc2ccccc2)C(O)Cc2ccccc2)cc1 (stereo unspecified)   not fulfilled
2  CC(C)=CC1C(C(=O)OCN2C(=O)C3=C(CCCC3)C2=O)C1(C)C (stereo unspecified)       fulfilled
3               CC(C)(C)OC(=O)N1CCC(C#N)CC1       fulfilled
4  OCCC(F)(F)C(F)(F)C(F)(F)C(F)(F)C(F)(F)C(F)(F)F       fulfilled
5                                    CCSC#N       fulfilled

Asked: Criterion: melting point strictly below 100 °C. Is it met by `CCCCCN` ?
Given back: fulfilled
